test system: HOP-92 NSCLC; assay: NCI-60 one-dose screen, 48 h (100 = growth as untreated, 0 = no growth, -100 = all killed); conditions: 10 µM unless noted
About 83,000 compounds went through this panel and 20% of them were active in at least one assay; those are over-represented in the sample as a whole. Calls of active or inactive are those of the source. Rule for the calls: active = growth percent below 10; inactive = the rest.
# Lookup of reported growth keyed by entry
observed property: growth

INSERT INTO measurements (compound, experimental_target, observed_property, value) VALUES
  ('COc1ccc(-c2ccc(-c3ccc(C(=N)N)nc3)s2)cc1', 'HOP-92 NSCLC', 'growth', '77.9% (inactive)'),
  ('CCCCN(CCC#N)C(N)=O', 'HOP-92 NSCLC', 'growth', '97.2% (inactive)'),
  ('CCOc1ccccc1NC(=O)CCC(=O)OC', 'HOP-92 NSCLC', 'growth', '110% (inactive)'),
  ('COc1ccccc1NC(=O)n1c(=O)cc(C)c2ccc(O)cc21', 'HOP-92 NSCLC', 'growth', '88.9% (inactive)'),
  ('CN1CCN(Cc2ccc(NC(=O)c3cc(C#Cc4cnc(N)c5ncccc45)n(C)n3)cc2C(F)(F)F)CC1', 'HOP-92 NSCLC', 'growth', '103% (inactive)'),
  ('COC(CCP(=O)(c1ccccc1)c1ccccc1)(C(=O)c1ccccc1)c1ccccc1 (configuration not stated)', 'HOP-92 NSCLC', 'growth', '-8.84% (active)'),
  ('C#CCOc1cccc(-c2ncnc3cc(NC(=O)CCl)ccc23)c1', 'HOP-92 NSCLC', 'growth', '-67.1% (active)'),
  ('Cc1ccc(Nc2oc(-c3ccccc3)nc2[P+](c2ccccc2)(c2ccccc2)c2ccccc2)cc1', 'HOP-92 NSCLC', 'growth', '-44.8% (active)'),
  ('COc1ccc(-c2ccc(-c3ccc(C(=N)N)o3)o2)cc1', 'HOP-92 NSCLC', 'growth', '27% (inactive)'),
  ('C=C1C(=O)O[C@H]2[C@H]1CC/C(COC(=O)NCc1ccc(Cn3c(=O)sn(CCCC)c3=O)cc1)=C\CC[C@@]1(C)O[C@@H]21', 'HOP-92 NSCLC', 'growth', '-6.79% (active)'),
  ('CCOC(=O)c1cc(C(=O)c2cc(OC)cc(OC)c2)n2ncccc12', 'HOP-92 NSCLC', 'growth', '47.1% (inactive)'),
  ('C[C@H]1c2ccccc2CN1CCCOc1cc2c(cc1OCC1CC1)C1(CCCC1)C(N)=N2', 'HOP-92 NSCLC', 'growth', '23.2% (inactive)'),
  ('COc1cc(/C=C/c2cc(/C=C/c3ccc(O)c(OC)c3)n(C(=O)Nc3ccc(C)cc3C)n2)ccc1O', 'HOP-92 NSCLC', 'growth', '-27% (active)'),
  ('CC1=C(C(=O)c2ccccc2)C(c2ccc3c(c2)OCO3)NC(=S)N1 (configuration not stated)', 'HOP-92 NSCLC', 'growth', '92.3% (inactive)'),
  ('CCCCC/C=C/CCC(=O)N[C@H]1[C@H](Oc2c3cc4cc2Oc2ccc(cc2Cl)[C@@H](O[C@@H]2O[C@H](CO)[C@@H](O)[C@H](O)[C@H]2NC(C)=O)[C@@H]2NC(=O)[C@H](NC(=O)[C@@H]4NC(=O)[C@H]4NC(=O)[C@@H](Cc5ccc(c(Cl)c5)O3)NC(=O)[C@@H](N)c3ccc(O)c(c3)Oc3cc(O)cc4c3)c3ccc(O)c(c3)-c3c(O[C@H]4O[C@H](CO)[C@@H](O)[C@H](O)[C@@H]4O)cc(O)cc3[C@H](C(=O)O)NC2=O)O[C@H](CO)[C@H](O)[C@@H]1O', 'HOP-92 NSCLC', 'growth', '96.4% (inactive)'),
  ('O=C(Cn1cc(CSc2nc3ccccc3o2)nn1)Nc1ccc([N+](=O)[O-])cc1', 'HOP-92 NSCLC', 'growth', '95.2% (inactive)'),
  ('COC(=O)c1ccc(-n2cc(CCCOS(=O)(=O)c3ccc(F)cc3)nn2)cc1', 'HOP-92 NSCLC', 'growth', '100% (inactive)');

----------
test system: SR leukemia; assay: NCI-60 one-dose screen, 48 h (100 = growth as untreated, 0 = no growth, -100 = all killed); conditions: 10 µM unless noted
This is part of a sample that, as a whole, favours compounds with a hit. Of some 83,000 tested, about 20% had one in any assay.
# Lookup of reported growth keyed by entry
observed property: growth (%)

INSERT INTO assay_data (molecule, value) VALUES
  ('CCOC(=O)/C=C1\S/C(=N\Nc2cc(=O)[nH]c3ccc(OC)cc23)N(c2ccccc2)C1=O', 50.4),
  ('Nc1ccc(N)c2c1C(=O)c1cccc([N+](=O)[O-])c1C2=O', -9.26),
  ('COc1cccc(C(=O)Nc2cccc(NC(=O)c3ccccn3)c2)c1', 77),
  ('COc1cc2c(c(OC)c1OC)CCC(c1cccc(C(=O)Nc3ccccc3Br)c1)O2 (stereo not given)', 75.6),
  ('COc1ccc(/C=C/C(=O)c2ccc(-n3cc(CN4CCN(c5cc6c(cc5F)c(=O)c(C(=O)O)cn6C5CC5)CC4)nn3)cc2)cc1', -2.25),
  ('Cc1[nH]c(C(=O)Nc2ccc(C(N)=O)cc2OC(C)C)c(Cl)c1Cl', 79.2),
  ('CCOC(=O)c1ccc2c(c1)c1c(C)c3cnccc3c(C)c1n2C', 14.9),
  ('FC(F)(F)c1cccc(-c2nnn(Cc3cc(-c4cccc(Cl)c4)no3)n2)c1', 96.2),
  ('Nc1nc(=O)n([C@H]2CC=C(CO)O2)cc1F', 86.1),
  ('C[C@H]1c2ccccc2CN1CCCOc1cc2c(cc1OCC1CC1)C1(CCCC1)C(N)=N2', 13.8),
  ('CS(=O)(=O)c1cccc(Nc2ncc3cc(-c4ccccc4Cl)ccc3n2)c1', 0.145),
  ('Cc1ccc(S(=O)(=O)N(CCC(=O)O)c2ccccc2)cc1', 99.3),
  ('CC(=O)c1ccc(Nc2nccc(-c3ccc(Cl)cc3)n2)cc1', 58.3),
  ('NCCNc1ccc([N+](=O)[O-])cc1', 100),
  ('Cc1cc(C(=O)Nc2cc(Nc3ncccc3-c3ncnc4nc[nH]c34)ccc2F)cc(C(C)(C)C#N)c1', 32.1),
  ('COC(=O)c1nc(-c2ccc(C)cc2)oc1N1CCOCC1', 80.3),
  ('COc1ccc2c(O)cc3c(c2c1)[C@H](CCl)CN3C(=O)c1cc2cc(NC(=O)CCN3CCOCC3)ccc2[se]1', 52.5),
  ('CCN(CC)CCCC(Nc1c2ccc(Cl)cc2nc2ccc(OC)cc12)c1ccncc1 (stereo not given)', -6.47),
  ('O=C(/C=C/c1ccc([N+](=O)[O-])cc1)c1cccc(Nc2nc(Nc3ccccc3)nc(Nc3ccccc3)n2)c1', 55.8),
  ('CCOC(=O)c1c(NC(=S)Nc2ccc([N+](=O)[O-])cc2)sc2c1CCCCC2', 61.7);

----------
test system: UACC-62 melanoma; assay: NCI-60 one-dose screen, 48 h (100 = growth as untreated, 0 = no growth, -100 = all killed); conditions: 10 µM unless noted
About 83,000 compounds went through this panel and 20% of them were active in at least one assay; those are over-represented in the sample as a whole.
growth under 60% gets Yes, anything at or over 60% gets No.

INSERT INTO results (molecule, group) VALUES
  ('CCOC(=O)CSc1nc2sc3c(c2c(=O)n1-c1ccccc1)CCCCC3', 'No'),
  ('CO[C@H]1/C=C/O[C@@]2(C)Oc3c(C)c(O)c4c(O)c(c5c(nc6cc(C)ccn65)c4c3C2=O)NC(=O)/C(C)=C\C=C\[C@H](C)[C@H](O)[C@@H](C)C(O)[C@@H](C)[C@H](OC(C)=O)[C@@H]1C (stereo partly drawn)', 'No'),
  ('[2H]C([2H])([2H])Oc1ccc(/C=C/C(=O)/C=C(/C=C/c2ccc(OC([2H])([2H])[2H])c(OC([2H])([2H])[2H])c2OC([2H])([2H])[2H])OB(F)F)c(OC([2H])([2H])[2H])c1OC([2H])([2H])[2H]', 'Yes'),
  ('C(CCCSC1=NCCN1)CCSC1=NCCN1', 'No'),
  ('Nc1n[nH]c2cccc(C#Cc3cccc(C(=O)Nc4ccc(Cl)c(C(F)(F)F)c4)c3)c12', 'Yes'),
  ('Cc1ccc(C23CCC(=O)N2CCc2cncn23)cc1 (stereo not drawn)', 'No'),
  ('COc1ccc(C(=O)/C=C/c2ccc(Cl)cc2)cc1S(N)(=O)=O', 'Yes');

----------
Tested on: COLO 205 colon
Experiment: NCI-60 one-dose screen, 48 h
Conditions: 10 µM unless noted
Procedure: Cells are grown in 96 well plates and exposed to the test compound for 48 hours. Compounds are tested at a single concentration, which is 10^-5 M for most compounds. The reported endpoint is percent growth (GI% or GIPRCNT), where numbers from 0 - 100% represent growth inhibition, and numbers from -100% - 0 represent cell death. For example, a value of 40 represents 60% growth inhibition. A value of 0 means no net growth occurred over the course of the experiment. […]
About 83,000 compounds went through this panel and 20% of them were active in at least one assay; those are over-represented in the sample as a whole. Calls of active or inactive are those of the source. The calls were made as follows: active = growth percent below 10; inactive = the rest.
Possible outcomes: active, inactive

INSERT INTO assay_data (compound, group) VALUES
  ('CC(=O)O[C@H]1C[C@@]2(C)[C@@H](C[C@@H](O)[C@H]3[C@@]4(C)CC[C@H](N5CCCC5)[C@@H](C)[C@@H]4CC[C@@]32C)/C1=C(\CCC=C(C)C)C(=O)O', 'inactive'),
  ('N#CSCc1cc(Cl)c(CSC#N)cc1Cl', 'inactive'),
  ('C#C[C@]1(O)CC[C@H]2[C@@H]3CC=C4c5sc(-c6ccccc6)nc5CC[C@]4(C)[C@H]3CC[C@@]21C', 'inactive'),
  ('C=C(CNCCO)[C@@H]1CC[C@]2(CO)CC[C@]3(C)[C@H](CC[C@@H]4[C@@]5(C)CCC(NCCO)C(C)(C)[C@@H]5CC[C@]43C)[C@@H]12 (stereo partly drawn)', 'inactive'),
  ('O=C(OCC(O)C(=O)NC12CC3CC(CC(C3)C1)C2)c1cccc(Br)c1 (stereo not drawn)', 'inactive'),
  ('COc1cc(OC)cc(C(=O)Nc2cnc(Nc3ccc(N4CCOCC4)nc3)nc2Oc2ccc(C(F)(F)F)cc2)c1', 'inactive'),
  ('Cc1ccc(OCCOCCOCCOCCOc2ccc(C)n(O)c2=S)c(=S)n1O', 'active'),
  ('Cn1ccnc1C(=O)/C=C/c1ccc(C(=O)Nc2c(F)c(F)c(F)c(F)c2F)cc1', 'active');
